- measuredOn: histone deacetylase (HeLa nuclear extracts)
- procedureText: In vitro assay for inhibition of histone deacetylase
- Assay type: biochemical
- testParameters: [3H]acetylated histone H4 peptide substrate
attributeMeasured: Enzyme activity pIC50

• CN(C)c1ccc2cc(S(=O)(=O)N3CCN(c4ncc(C(=O)NO)cn4)CC3)ccc2c1 = 7.098
• CC(C)(C)c1ccc(S(=O)(=O)N2CCN(c3ncc(C(=O)NO)cn3)CC2)cc1 = 7.876
• O=C(NO)c1ccc(N2CCN(S(=O)(=O)c3cccc(F)c3)CC2)cc1 = 6.255
• O=C(NO)c1cnc(N2CCN(S(=O)(=O)c3ccc(-c4ccccc4OCCN4CCOCC4)cc3)CC2)nc1 = 8.7

###

- measuredOn: histone deacetylase (HeLa nuclear extracts)
- procedureText: In vitro assay for inhibition of histone deacetylase
- Type: biochemical
- testParameters: [3H]acetylated histone H4 peptide substrate
attributeMeasured: Enzyme activity pIC50

• O=C(NO)c1cnc(N2CCN(S(=O)(=O)c3ccc(-c4ccccc4Cl)cc3)CC2)nc1 = 8.117
• O=C(NO)c1cnc(N2CCN(S(=O)(=O)c3ccc(-c4ccc(C(F)(F)F)cc4)cc3)CC2)nc1 = 6.417
• CN(c1ccccc1)c1ccc2cc(S(=O)(=O)N3CCN(c4ncc(C(=O)NO)cn4)CC3)ccc2c1 = 6.539
• O=C(NO)c1cnc(N2CCN(S(=O)(=O)c3ccc(-c4ccoc4)cc3)CC2)nc1 = 8.171
• CN1CCN(Cc2cccc(-c3ccc(S(=O)(=O)N4CCN(c5ncc(C(=O)NO)cn5)CC4)cc3)c2)CC1 = 8.338
• Cn1cnc(S(=O)(=O)N2CCN(c3ccc(C(=O)NO)cc3)CC2)c1 = 5.775
• O=C(NO)c1cnc(N2CCN(S(=O)(=O)c3ccc4ccccc4c3)C(CO)C2)nc1 (stereo not shown) = 6.833
• COc1cccc(-c2ccc(S(=O)(=O)N3CCN(c4ncc(C(=O)NO)cn4)CC3)cc2)c1 = 7.332
• Cc1c(C)c(S(=O)(=O)N2CCN(c3ccc(C(=O)NO)cc3)CC2)c(C)c2c1OC(C)(C)C2 = 5.177
• O=C(NO)c1ccc(N2CCN(S(=O)(=O)c3ccc(Oc4ccccc4)cc3)CC2)cc1 = 5.821
• CN(C)CCN(C)Cc1sccc1-c1ccc(S(=O)(=O)N2CCN(c3ncc(C(=O)NO)cn3)CC2)cc1 = 8.565
• O=C(NO)c1cnc(N2CCN(S(=O)(=O)c3ccc(-c4ccccn4)s3)CC2)nc1 = 7.634
• CN(C)CCCOc1ccccc1-c1ccc(S(=O)(=O)N2CCN(c3ncc(C(=O)NO)cn3)CC2)cc1 = 8.869
• O=C(NO)c1cnc(N2CCN(S(=O)(=O)c3ccc(/C=C/c4ccccc4)cc3)CC2)nc1 = 7.176
• O=C(NO)c1ccc(N2CCN(S(=O)(=O)c3ccc4ccccc4c3)CC2)cc1 = 7.147
• O=C(NO)c1ccc(N2CCN(S(=O)(=O)Cc3ccccc3)CC2)cc1 = 6.212
• O=C(NO)c1cnc(N2CCN(S(=O)(=O)c3ccc(-c4ccccc4CN4CCOCC4)cc3)CC2)nc1 = 7.784
• Cc1cccc(C)c1-c1ccc(S(=O)(=O)N2CCN(c3ncc(C(=O)NO)cn3)CC2)cc1 = 7.869
• O=C(NO)c1ccc(N2CCN(S(=O)(=O)c3ccccc3C(F)(F)F)CC2)cc1 = 5.841
• CN(C)c1cccc(-c2ccc(S(=O)(=O)N3CCN(c4ncc(C(=O)NO)cn4)CC3)cc2)c1 = 7.631
• O=C(NO)c1cnc(N2CCN(S(=O)(=O)c3cccs3)CC2)nc1 = 7.467
• O=C(NO)c1ccc(N2CCN(S(=O)(=O)c3cc(S(=O)(=O)c4ccccc4)cs3)CC2)cc1 = 5.978
• CN(C)CC1CN(c2ncc(C(=O)NO)cn2)CCN1S(=O)(=O)c1ccc2ccccc2c1 (stereo not shown) = 6.787
• O=C(NO)c1cnc(N2CCN(S(=O)(=O)c3ccc(-c4ccsc4)cc3)CC2)nc1 = 8.152
• O=C(NO)c1cnc(N2CCCN(S(=O)(=O)c3ccc4ccccc4c3)CC2)nc1 = 7.125

###

- procedureText: Kinetic solubility in aqueous media (nephelometry)
- Type: physicochemical
- testParameters: phosphate citrate buffer, pH 7.4, aqueous buffer, kinetic from dmso stock, phosphate citrate buffer pH 7.4, turbidity of three dilution steps; read-out: Solubility Score
attributeMeasured: solubility

These recorded examples may help you get a feel for the data.
• O=C(NO)c1ccc(N2CCN(S(=O)(=O)c3ccc(Br)cc3)CC2)cc1 [Compound 78] = 75.8 to 454 µM
• Cc1ccc(S(=O)(=O)N2CCN(c3ccc(C(=O)NO)cc3)CC2)cc1 [Compound 79] = < 75.8 µM
• O=C(NO)c1cnc(N2CCN(S(=O)(=O)c3ccc(-c4cccc(C(F)(F)F)c4)cc3)CC2)nc1 [Compound 102] = 75.8 to 454 µM

*Q* For the compound shown here, Nc1ccccc1NC(=O)c1ccc(N2CCN(S(=O)(=O)c3ccc4ccccc4c3)CC2)cc1 [Compound 17] , give the reported solubility.
*A* < 75.8 µM

*Q* For the compound shown here, O=C(NO)c1cnc(N2CCN(S(=O)(=O)c3ccc(-c4ccccc4Cl)cc3)CC2)nc1 [Compound 108] , give the reported solubility.
*A* < 75.8 µM

*Q* For the compound shown here, CS(=O)(=O)c1ccccc1S(=O)(=O)N1CCN(c2ccc(C(=O)NO)cc2)CC1 [Compound 60] , give the reported solubility.
*A* > 454 µM

###

- measuredOn: histone deacetylase (HeLa nuclear extracts)
- procedureText: In vitro assay for inhibition of histone deacetylase
- Type: biochemical
- testParameters: [3H]acetylated histone H4 peptide substrate
attributeMeasured: Enzyme activity pIC50

• O=C(NO)c1cnc(N2CCN(S(=O)(=O)c3ccc(-c4ccccc4CN(CCO)CCO)cc3)CC2)nc1 [Compound 160] = 8.272
• O=C(NO)c1ccc(N2CCN(S(=O)(=O)c3ccc(Br)cc3)CC2)cc1 [Compound 78] = 6.306
• Cc1cc(C)cc(-c2ccc(S(=O)(=O)N3CCN(c4ncc(C(=O)NO)cn4)CC3)cc2)c1 [Compound 136] = 7.288
• O=C(NO)c1ccc(N2CCN(S(=O)(=O)c3ccc4ccccc4c3)CC2)nc1 [Compound 142] = 8.01
• O=C(NO)c1cnc(N2CCN(S(=O)(=O)c3ccc(-c4cccc5c4oc4ccccc45)cc3)CC2)nc1 [Compound 131] = 6.058

1: O=C(NO)c1cnc(N2CCN(S(=O)(=O)c3ccc(-c4ccccc4OCCN4CCCC4)cc3)CC2)nc1 [Compound 125]
2: Cc1noc(C)c1S(=O)(=O)N1CCN(c2ccc(C(=O)NO)cc2)CC1 [Compound 64]
*Q* Looking only at measured Enzyme activity pIC50, which entry is lower, 1 or 2 ? Answer format: the label of the selected item.
*A* 2

###

- procedureText: Kinetic solubility in aqueous media (nephelometry)
- Assay type: physicochemical
- testParameters: phosphate citrate buffer, pH 7.4, aqueous buffer, kinetic from dmso stock, phosphate citrate buffer pH 7.4, turbidity of three dilution steps; read-out: Solubility Score
# Lookup of reported solubility keyed by entry

These recorded examples may help you get a feel for the data.
• CN(c1ccccc1)c1ccc2cc(S(=O)(=O)N3CCN(c4ncc(C(=O)NO)cn4)CC3)ccc2c1 = 75.8 to 454 µM
• O=C(NO)c1cnc(N2CCN(S(=O)(=O)c3ccc(-c4ccccc4C(F)(F)F)cc3)CC2)nc1 = 75.8 to 454 µM
• O=C(NO)c1cnc(N2CCN(S(=O)(=O)c3ccc(-c4ccc(Cl)c(Cl)c4)cc3)CC2)nc1 = < 75.8 µM

Next up:
*Q* For the compound shown here, `O=C(NO)c1cnc(N2CCN(S(=O)(=O)c3ccc(-c4ccsc4CN4CCN(CCOCCO)CC4)cc3)CC2)nc1` , give the reported solubility.
*A* 75.8 to 454 µM

###

- procedureText: Kinetic solubility in aqueous media (nephelometry)
- Assay type: physicochemical
- testParameters: phosphate citrate buffer, pH 7.4, aqueous buffer, kinetic from dmso stock, phosphate citrate buffer pH 7.4, turbidity of three dilution steps; read-out: Solubility Score
attributeMeasured: solubility

* Cn1nc(C(F)(F)F)cc1-c1ccc(S(=O)(=O)N2CCN(c3ncc(C(=O)NO)cn3)CC2)s1 | 75.8 to 454 µM
* O=C(CS)Nc1ccc(N2CCN(S(=O)(=O)c3ccc4ccccc4c3)CC2)cc1 | < 75.8 µM
* O=C(NO)c1cnc(N2CCN(S(=O)(=O)c3ccc(-c4ccccc4OCCN4CCCC4)cc3)CC2)nc1 | 75.8 to 454 µM

Next up:
*Q* For the compound shown here, `O=C(NO)c1ccc(CN2CCN(S(=O)(=O)c3ccc4ccccc4c3)CC2)cc1` , give the reported solubility.
*A* > 454 µM

###

- procedureText: Kinetic solubility in aqueous media (nephelometry)
- Format: physicochemical
- testParameters: phosphate citrate buffer, pH 7.4, aqueous buffer, kinetic from dmso stock, phosphate citrate buffer pH 7.4, turbidity of three dilution steps; read-out: Solubility Score
# Lookup of reported solubility keyed by entry

* CN(C)CC1CN(c2ncc(C(=O)NO)cn2)CCN1S(=O)(=O)c1ccc2ccccc2c1 (stereo not shown) [Compound 123] | > 454 µM
* O=C(NO)c1cnc(N2CCN(S(=O)(=O)c3ccc4ccccc4c3)C(CO)C2)nc1 (stereo not shown) [Compound 121] | > 454 µM
* O=C(NO)c1cnc(N2CCN(S(=O)(=O)c3ccc(-c4ccccn4)s3)CC2)nc1 [Compound 182] | < 75.8 µM
* O=C(NO)c1ccc(N2CCN(S(=O)(=O)c3ccc(Cl)s3)CC2)cc1 [Compound 66] | < 75.8 µM
* COc1ccccc1-c1ccc(S(=O)(=O)N2CCN(c3ncc(C(=O)NO)cn3)CC2)cc1 [Compound 103] | 75.8 to 454 µM

Next up:
*Q* For the compound shown here, O=C(NO)c1cnc(N2CCN(S(=O)(=O)c3ccc(-c4ccc(F)cc4)cc3)CC2)nc1 [Compound 178] , give the reported solubility.
*A* < 75.8 µM
